Numbers sourced from a melting point compilation (Tetko et al.; mined from patent text by program, amines drawn as free bases though some values may be those of a salt).

Readout name: melting point

{"columns": ["Compound", "Test value"],
 "data": [
  ["CCC1C(C)=NN=C(c2ccc(OC)c(OC)c2)c2cc(C)ccc21 (stereo unspecified)", "156 to 158 °C"],
  ["Cc1nnc2n1-c1ccc(Cl)cc1C(=S)NC2", "298 to 303 °C"],
  ["CC(=O)c1cccc(C)c1NC(=O)CCBr", "99 to 101 °C"]
]}

Hi! Can you tell me melting point for each of these compounds?
1. c1ccc(CNc2nc(-c3ccco3)nc3ccccc23)cc1
2. COC(=O)C(O)C(NCc1ccccc1)c1ccc(Cl)cc1 (stereo unspecified)
3. CCOC(=O)C(NC(=O)Cc1ccc(N)cn1)C(=O)OCC
4. CCOC(=O)c1c(C(=O)OC)c(O)c2cc(OC)c(OC)c(OC)c2c1-c1ccc(OC)c(OC)c1
5. Cc1c(C=O)cc(-c2ccc(S(C)(=O)=O)cc2)n1-c1ccc(F)cc1
6. CCOC(=O)OC1=C(c2c(C)cc(C)cc2C)C(=O)N(O)C12CCN(OC)CC2
7. C=CCOc1cc(-n2nc(C)c(C)c2C)c(F)cc1Cl

1. 152 to 154 °C
2. 106 to 108 °C
3. 89 to 90 °C
4. 157 to 159 °C
5. 136 to 138 °C
6. 154 to 155 °C
7. 97 to 99 °C

Batch of 8 compounds: report melting point for each.
1. CCOC(=O)c1c(CCn2cncn2)nc2sc3c(c2c1-c1ccc(OC)c(OC)c1)CCN(C(=O)c1ccc(Cl)cc1)C3
2. Cc1cccc(C)c1N(CCCC(=O)O)C(=O)CN(C(=O)c1ccc(Cl)cc1)c1c(C)cccc1C
3. CC(=O)ONc1nc(CC(=O)Nc2cccc(C(F)(F)F)c2)cs1
4. COc1ccc(CSc2cc(Cl)ccc2CN(C)C)cc1
5. CCOC1=Cc2ccccc2N(C)c2ccc(Br)cc21
6. CS(=O)(=O)c1ccc2nc(NC(=N)N)nc(-c3ccccc3)c2c1
7. CNC(=O)c1c(N)n(C2CCCC2)c2nc(C#CC(C)(O)CO)ccc2c1=O (stereo unspecified)
8. O=C(CNC(=O)c1cc([N+](=O)[O-])c(F)cc1Cl)OCc1ccccc1

["195 to 197 °C", "214 to 216 °C", "137 to 140 °C", "66 to 68 °C", "131 °C", "180 to 185 °C", "210 °C", "108 to 110 °C"]

###

Kindly supply the reported melting point values for the records listed here.

Observe how each entry below is paired with its result.
{"columns": ["Molecule", "melting point"],
 "data": [
  ["COCc1cc(-c2ncc3[nH]c4cccc(Cc5ccccc5Cl)c4c3c2COC)no1", "178 to 180 °C"],
  ["Cc1cc(SCC#Cc2ccc(C(F)(F)F)cc2)ccc1OCC(=O)O", "130 to 131 °C"],
  ["O=C(Nc1cccnc1NCc1ccc(Cl)cc1)c1ccccc1Cl", "117 to 119 °C"],
  ["COc1ccc2c(c1)C(CC(=O)O)=C(C)C2=Cc1ccc(S(C)=O)cc1 (stereo not given)", "200 to 204 °C"],
  ["CNc1nnc(-c2ccc3occ(-c4ccc(S(C)=O)cc4)c3c2)o1 (stereo not given)", "240 to 241 °C"]
]}

Kindly give each listed record's melting point.
1. Cc1ccc(S(=O)(=O)Nc2cccc3cc(C(=O)Nc4ccccc4)[nH]c23)cc1
2. CC1C(c2ccccc2)OC(=O)N1C(=O)CC1c2ccccc2CCc2ccccc21 (stereo not given)
3. COC(=O)c1ccc(NC2CC2)c(S(N)(=O)=O)c1

247 to 248 °C
130 to 131 °C
158 to 161 °C

Field: melting point. Fill in for each record below.
1. CCC(Cl)(CC)C(CO)N=O (stereo not given)
2. CCOc1cc2c(cc1S(=O)(=O)NC(=O)NC)C(CNC(=O)N1CC(C)=C(CC)C1=O)CCO2 (stereo not given)

1: 130 °C; 2: 187 to 188 °C
